Assay: AUC (0 to infinity) in CD-1 mouse at 10 mg/kg, po
Assay type: ADME, organism-based
Set-up: route oral, time infinity, dose 10 mg/kg
Settings: in vivo
READOUT_TYPE: AUC(0-inf) (µM·h)
State just the number; it will be interpreted in µM·h.

Specify measured AUC(0-inf) for CC(C)S(=O)(=O)c1ccc(S(=O)(=O)N2CCC[C@@H](C(=O)N3CCC(F)(F)CC3)C2)cc1 .
0.417

---

Test system: MIA PaCa-2
Experiment: Cytotoxicity against human MIA PaCa-2 cells assessed as inhibition of cell growth incubated for overnight in glucose-containing medium followed by compound addition and measured after 7 days by MTT assay
Format: functional, cell-based
Settings: MIA PaCa-2, 168 h
pIC50: −log10 of the molar value.
Class Y: pIC50 at least 6. Class N: pIC50 below 6.

[
  {
    "SMILES_TEXT": "O=C([C@@H]1CCCN(S(=O)(=O)c2ccc(S(=O)(=O)N3CC[C@@H](O)C3)cc2)C1)N1CCC(F)(F)CC1",
    "QUALITATIVE_LABEL": "Y"
  }
]

Record CCP(=O)(CC)c1ccc(S(=O)(=O)N2CCC[C@@H](C(=O)N3CCC(F)(F)CC3)C2)cc1 ; criterion: pIC50 no lower than 6. Met?
N

Record CCN(CC)S(=O)(=O)c1ccc(S(=O)(=O)N2CCC[C@@H](C(=O)N3CCC(OC)CC3)C2)cc1 ; criterion: pIC50 no lower than 6. Met?
Y

Record O=C([C@@H]1CCCN(S(=O)(=O)c2ccc(S(=O)(=O)N3CC[C@H](O)C3)cc2)C1)N1CCC(F)(F)CC1 ; criterion: pIC50 no lower than 6. Met?
Y

Record CCN(CC)S(=O)(=O)c1ccc(S(=O)(=O)N2CCC[C@@H](C(=O)N3CCC(F)(F)CC3)C2)cc1 ; criterion: pIC50 no lower than 6. Met?
Y

Record CCN(CC)S(=O)(=O)c1ccc(S(=O)(=O)N2CCC[C@@H](C(=O)N3CCC(C(F)(F)F)CC3)C2)cc1 ; criterion: pIC50 no lower than 6. Met?
Y

---

Assay: AUC(0 to t) in CD-1 mouse at 10 mg/kg, po
Type: ADME, organism-based
Set-up: dose 10 mg/kg
Conditions: in vivo
READOUT_TYPE: AUC(0-t) (µM·h)
State just the number; it will be interpreted in µM·h.

Specify measured AUC(0-t) for CC(C)S(=O)(=O)c1ccc(S(=O)(=O)N2CCC[C@@H](C(=O)N3CCC(F)(F)CC3)C2)cc1 .
0.368

---

Experiment: Terminal elimination half life in CD-1 mouse at 10 mg/kg, po
Format: ADME, organism-based
Conditions: in vivo, read-out: LambdaZ (converted)
READOUT_TYPE: half-life (h)
State just the number; it will be interpreted in h.

Specify measured half-life for CC(C)S(=O)(=O)c1ccc(S(=O)(=O)N2CCC[C@@H](C(=O)N3CCC(F)(F)CC3)C2)cc1 .
3.06

---

Experiment: Clearance in CD-1 mouse at 10 mg/kg, po
Type: ADME, organism-based
Conditions: in vivo
READOUT_TYPE: CL/F (mL/min/kg)
State just the number; it will be interpreted in mL/min/kg.

Specify measured CL/F for CC(C)S(=O)(=O)c1ccc(S(=O)(=O)N2CCC[C@@H](C(=O)N3CCC(F)(F)CC3)C2)cc1 .
835
